protocolSummary: Pharmacokinetics in SD rats
Type: in vivo
measurementConditions: Sprague-Dawley, rat, in vivo; Table 8 (SD rats), IV 1 mg/kg; read-out: Vss (iv)
measurementLabel: Vd

Q: Which Vd value belongs to Cc1cc(Nc2ncc(Cl)c(Nc3ccccc3S(=O)(=O)C(C)C)n2)c(OC(C)C)cc1C1=CCN(C2CCOCC2)CC1 [Cpd. No. 5] ?
A: 7.97 L/kg

---

systemName: ALK G1202R (Homo sapiens, UniProt Q9UM73, G1202R)
protocolSummary: Mutant ALK kinase inhibition, Lance TR-FRET, G1202R
Format: biochemical
measurementConditions: Table 6, comparison with known ALK inhibitors; read-out: G1202R IC50
measurementLabel: pIC50
# pIC50 = -log10(concentration in molar units)

Q: Which pIC50 value belongs to `Cc1cc(Nc2ncc(Cl)c(Nc3ccccc3S(=O)(=O)C(C)C)n2)c(OC(C)C)cc1C1=CCN(C2CCOCC2)CC1` ?
A: 8.04

---

systemName: ALK F1197M (Homo sapiens, UniProt Q9UM73)
Construct: Mutated ALK proteins were expressed in SF9 insect cells with N-terminal tags cleaved after purification; fused on or other part: N-terminal tag, cleaved after purification
protocolSummary: Mutant ALK kinase inhibition, F1197M
Format: biochemical
measurementConditions: Table 5
measurementLabel: IC50 (nM)
Hi! Could you send only the number? It should be in nM, unit omitted.

Q: Quick check: IC50 on ALK F1197M (Homo sapiens, UniProt Q9UM73), item `Cc1cc(Nc2ncc(Cl)c(Nc3ccccc3S(=O)(=O)C(C)C)n2)c(OC(C)C)cc1C1=CCN(C2CCOCC2)CC1` ?
A: 3.3

---

protocolSummary: Pharmacokinetics in beagle dogs
Format: in vivo
measurementConditions: dog, in vivo; Table 9 (beagle dogs), IV 1 mg/kg; read-out: Tmax (h) IV
measurementLabel: Tmax (h)
Hi! Could you send only the number? It should be in h, unit omitted.

Q: Which Tmax value belongs to `Cc1cc(Nc2ncc(Cl)c(Nc3ccccc3S(=O)(=O)C(C)C)n2)c(OC(C)C)cc1C1=CCN(C2CCOCC2)CC1` ?
A: 0.083

---

systemName: ROS1 (Homo sapiens)
Construct: purchased LeadHunter Discovery Services (currently DiscoverX Corporation), KINOMEscan screening service
Sequence (P08922 28-2347): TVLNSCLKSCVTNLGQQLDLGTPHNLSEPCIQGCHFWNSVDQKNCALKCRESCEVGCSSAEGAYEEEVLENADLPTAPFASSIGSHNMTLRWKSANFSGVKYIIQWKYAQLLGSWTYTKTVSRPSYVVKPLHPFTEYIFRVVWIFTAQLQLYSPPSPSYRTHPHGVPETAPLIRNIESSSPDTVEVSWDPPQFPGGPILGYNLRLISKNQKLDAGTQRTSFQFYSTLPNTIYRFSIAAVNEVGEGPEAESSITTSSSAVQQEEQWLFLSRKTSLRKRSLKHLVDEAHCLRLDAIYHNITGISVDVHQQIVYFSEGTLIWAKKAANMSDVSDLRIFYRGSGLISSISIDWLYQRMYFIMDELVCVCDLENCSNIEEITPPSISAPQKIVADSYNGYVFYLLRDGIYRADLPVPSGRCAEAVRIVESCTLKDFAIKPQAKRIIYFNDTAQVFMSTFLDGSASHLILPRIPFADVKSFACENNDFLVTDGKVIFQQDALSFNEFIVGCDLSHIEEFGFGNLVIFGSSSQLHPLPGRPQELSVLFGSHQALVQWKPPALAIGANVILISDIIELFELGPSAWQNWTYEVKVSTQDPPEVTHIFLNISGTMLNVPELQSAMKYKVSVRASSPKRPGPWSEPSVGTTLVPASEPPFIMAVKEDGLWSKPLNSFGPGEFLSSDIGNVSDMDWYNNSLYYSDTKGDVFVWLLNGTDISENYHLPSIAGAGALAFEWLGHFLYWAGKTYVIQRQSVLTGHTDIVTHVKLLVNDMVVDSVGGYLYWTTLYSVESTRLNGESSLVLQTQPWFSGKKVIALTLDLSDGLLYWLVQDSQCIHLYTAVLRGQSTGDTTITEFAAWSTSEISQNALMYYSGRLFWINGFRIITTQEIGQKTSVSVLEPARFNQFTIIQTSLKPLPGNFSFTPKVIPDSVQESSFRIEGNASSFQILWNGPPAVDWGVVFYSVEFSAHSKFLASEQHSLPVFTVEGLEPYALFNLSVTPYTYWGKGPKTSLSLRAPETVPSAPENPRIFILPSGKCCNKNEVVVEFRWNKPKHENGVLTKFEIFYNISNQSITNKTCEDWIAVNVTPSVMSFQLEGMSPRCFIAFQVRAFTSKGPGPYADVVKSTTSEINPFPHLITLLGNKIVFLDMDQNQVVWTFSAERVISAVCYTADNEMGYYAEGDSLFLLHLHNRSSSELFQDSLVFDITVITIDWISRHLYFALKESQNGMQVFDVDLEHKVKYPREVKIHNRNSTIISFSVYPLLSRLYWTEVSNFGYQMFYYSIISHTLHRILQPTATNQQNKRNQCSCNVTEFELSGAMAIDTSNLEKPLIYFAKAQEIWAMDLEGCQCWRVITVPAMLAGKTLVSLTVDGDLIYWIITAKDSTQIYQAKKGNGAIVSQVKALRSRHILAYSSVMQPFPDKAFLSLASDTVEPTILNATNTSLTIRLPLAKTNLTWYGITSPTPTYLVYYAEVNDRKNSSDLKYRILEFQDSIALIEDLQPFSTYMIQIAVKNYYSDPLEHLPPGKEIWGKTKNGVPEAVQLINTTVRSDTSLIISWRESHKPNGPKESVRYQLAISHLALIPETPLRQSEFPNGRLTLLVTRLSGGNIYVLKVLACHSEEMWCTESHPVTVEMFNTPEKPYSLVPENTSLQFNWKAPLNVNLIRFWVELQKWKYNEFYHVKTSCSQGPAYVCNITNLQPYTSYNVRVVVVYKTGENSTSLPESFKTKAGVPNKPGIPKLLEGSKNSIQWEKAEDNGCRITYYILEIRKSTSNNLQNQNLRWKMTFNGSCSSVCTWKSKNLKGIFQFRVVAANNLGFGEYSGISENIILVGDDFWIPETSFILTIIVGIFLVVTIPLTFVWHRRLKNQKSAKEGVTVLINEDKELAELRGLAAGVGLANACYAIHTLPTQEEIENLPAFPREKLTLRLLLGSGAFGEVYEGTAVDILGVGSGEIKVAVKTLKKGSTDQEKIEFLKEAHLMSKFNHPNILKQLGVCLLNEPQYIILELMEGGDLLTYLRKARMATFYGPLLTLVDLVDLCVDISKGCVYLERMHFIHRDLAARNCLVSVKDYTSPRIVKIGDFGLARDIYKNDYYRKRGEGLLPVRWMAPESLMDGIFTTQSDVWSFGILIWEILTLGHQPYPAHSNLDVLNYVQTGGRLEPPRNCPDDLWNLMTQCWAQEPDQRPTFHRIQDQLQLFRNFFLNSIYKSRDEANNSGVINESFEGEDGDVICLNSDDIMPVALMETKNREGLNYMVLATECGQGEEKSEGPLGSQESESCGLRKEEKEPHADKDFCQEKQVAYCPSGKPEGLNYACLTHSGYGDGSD
protocolSummary: KINOMEscan kinase panel, ROS1
Format: binding
measurementLabel: Kd (nM)
Hi! Could you send only the number? It should be in nM, unit omitted.

Q: Which Kd value belongs to Cc1cc(Nc2ncc(Cl)c(Nc3ccccc3S(=O)(=O)C(C)C)n2)c(OC(C)C)cc1C1=CCN(C2CCOCC2)CC1 [Cpd. No. 5] ?
A: 0.73

---

protocolSummary: Pharmacokinetics in beagle dogs
Assay type: in vivo
measurementConditions: dog, in vivo; Table 9 (beagle dogs), IV 1 mg/kg; read-out: CL (iv) (converted)
measurementLabel: clearance (mL/min/kg)
Hi! Could you send only the number? It should be in mL/min/kg, unit omitted.

Q: Which clearance value belongs to `Cc1cc(Nc2ncc(Cl)c(Nc3ccccc3S(=O)(=O)C(C)C)n2)c(OC(C)C)cc1C1=CCN(C2CCOCC2)CC1` ?
A: 8.1

---

protocolSummary: Pharmacokinetics in beagle dogs
Format: in vivo
measurementConditions: dog, in vivo; Table 9 (beagle dogs), IV 1 mg/kg; read-out: AUC0-t (ng · h/mL) IV
Method: Routine pharmacokinetics studies were performed for Cpd. No. 5 in SD rats and beagle dogs.
measurementLabel: AUC(0-t) (ng·h/mL)
Hi! Could you send only the number? It should be in ng·h/mL, unit omitted.

Q: Which AUC(0-t) value belongs to `Cc1cc(Nc2ncc(Cl)c(Nc3ccccc3S(=O)(=O)C(C)C)n2)c(OC(C)C)cc1C1=CCN(C2CCOCC2)CC1` ?
A: 1820

---

protocolSummary: Pharmacokinetics in SD rats
Type: in vivo
measurementConditions: Sprague-Dawley, rat, in vivo, iv, 1 mg/kg, Table 8 (SD rats), IV 1 mg/kg
measurementLabel: Tmax (min)
Hi! Could you send only the number? It should be in min, unit omitted.

Q: Which Tmax value belongs to Cc1cc(Nc2ncc(Cl)c(Nc3ccccc3S(=O)(=O)C(C)C)n2)c(OC(C)C)cc1C1=CCN(C2CCOCC2)CC1 [Cpd. No. 5] ?
A: 4.98

---

protocolSummary: Pharmacokinetics in beagle dogs
Assay type: in vivo
measurementConditions: dog, in vivo; Table 9 (beagle dogs), PO 5 mg/kg; read-out: Cmax(ng/mL) PO
measurementLabel: Cmax (ng/mL)
Hi! Could you send only the number? It should be in ng/mL, unit omitted.

Q: Which Cmax value belongs to `Cc1cc(Nc2ncc(Cl)c(Nc3ccccc3S(=O)(=O)C(C)C)n2)c(OC(C)C)cc1C1=CCN(C2CCOCC2)CC1` ?
A: 239

---

systemName: ALK S1206Y (Homo sapiens, UniProt Q9UM73, S1206Y)
Construct: made in house; host or cells: SF9 insect cells
Sequence (Q9UM73 19-1620 S1206Y): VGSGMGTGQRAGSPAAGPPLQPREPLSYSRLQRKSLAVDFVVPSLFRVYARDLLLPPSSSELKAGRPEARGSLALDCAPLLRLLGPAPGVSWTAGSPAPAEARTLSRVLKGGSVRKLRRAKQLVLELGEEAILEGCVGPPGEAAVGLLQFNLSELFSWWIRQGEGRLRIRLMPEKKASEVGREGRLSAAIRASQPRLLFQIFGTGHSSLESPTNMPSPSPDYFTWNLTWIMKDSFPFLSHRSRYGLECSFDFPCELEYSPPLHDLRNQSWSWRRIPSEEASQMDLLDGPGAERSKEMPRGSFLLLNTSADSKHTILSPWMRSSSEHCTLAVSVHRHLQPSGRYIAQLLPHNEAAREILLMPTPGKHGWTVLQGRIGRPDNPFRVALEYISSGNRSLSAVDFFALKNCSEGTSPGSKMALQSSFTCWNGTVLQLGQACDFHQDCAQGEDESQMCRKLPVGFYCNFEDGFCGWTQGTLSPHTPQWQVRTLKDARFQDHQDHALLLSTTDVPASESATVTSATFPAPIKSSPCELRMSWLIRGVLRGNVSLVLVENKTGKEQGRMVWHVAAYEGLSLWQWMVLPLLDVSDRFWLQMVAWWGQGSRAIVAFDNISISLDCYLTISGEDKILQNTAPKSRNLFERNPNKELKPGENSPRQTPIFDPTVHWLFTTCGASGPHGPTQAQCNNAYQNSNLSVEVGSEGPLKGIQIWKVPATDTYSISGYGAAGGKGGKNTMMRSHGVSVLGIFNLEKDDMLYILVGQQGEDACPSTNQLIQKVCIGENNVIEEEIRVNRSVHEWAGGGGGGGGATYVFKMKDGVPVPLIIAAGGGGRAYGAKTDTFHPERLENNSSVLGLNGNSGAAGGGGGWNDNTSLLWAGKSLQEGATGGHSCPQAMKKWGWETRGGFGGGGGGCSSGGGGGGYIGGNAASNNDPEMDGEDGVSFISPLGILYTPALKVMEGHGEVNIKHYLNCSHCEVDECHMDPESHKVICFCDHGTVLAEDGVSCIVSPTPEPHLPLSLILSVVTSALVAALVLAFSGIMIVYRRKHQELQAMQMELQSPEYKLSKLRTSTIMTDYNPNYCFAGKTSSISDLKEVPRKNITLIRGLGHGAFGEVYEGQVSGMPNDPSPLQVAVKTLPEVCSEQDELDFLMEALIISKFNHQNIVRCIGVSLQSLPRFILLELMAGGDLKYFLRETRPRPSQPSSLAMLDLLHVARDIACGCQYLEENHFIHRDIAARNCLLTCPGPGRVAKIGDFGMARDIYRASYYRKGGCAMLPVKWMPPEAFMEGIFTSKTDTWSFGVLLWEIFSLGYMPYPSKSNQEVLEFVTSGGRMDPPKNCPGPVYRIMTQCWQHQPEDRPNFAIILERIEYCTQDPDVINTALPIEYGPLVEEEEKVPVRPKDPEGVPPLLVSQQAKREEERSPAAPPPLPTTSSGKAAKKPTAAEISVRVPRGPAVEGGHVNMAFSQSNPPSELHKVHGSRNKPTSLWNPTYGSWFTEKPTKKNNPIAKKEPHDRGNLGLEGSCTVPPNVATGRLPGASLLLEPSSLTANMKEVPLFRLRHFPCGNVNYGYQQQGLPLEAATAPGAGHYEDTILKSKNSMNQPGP
protocolSummary: Mutant ALK kinase inhibition, Lance TR-FRET, S1206Y
Assay type: biochemical
measurementConditions: Table 5; ATP 100 μM
measurementLabel: IC50 (nM)
Hi! Could you send only the number? It should be in nM, unit omitted.

Q: Which IC50 value belongs to `Cc1cc(Nc2ncc(Cl)c(Nc3ccccc3S(=O)(=O)C(C)C)n2)c(OC(C)C)cc1C1=CCN(C2CCOCC2)CC1` ?
A: 1.3

---

protocolSummary: Pharmacokinetics in SD rats
Assay type: in vivo
measurementConditions: Sprague-Dawley, rat, in vivo, iv, 1 mg/kg, Table 8 (SD rats), IV 1 mg/kg
measurementLabel: Cmax (ng/mL)
Hi! Could you send only the number? It should be in ng/mL, unit omitted.

Q: Which Cmax value belongs to Cc1cc(Nc2ncc(Cl)c(Nc3ccccc3S(=O)(=O)C(C)C)n2)c(OC(C)C)cc1C1=CCN(C2CCOCC2)CC1 [Cpd. No. 5] ?
A: 234

---

protocolSummary: Pharmacokinetics in beagle dogs
Type: in vivo
measurementConditions: dog, in vivo; Table 9 (beagle dogs), IV 1 mg/kg; read-out: AUC0-∞ (ng · h/mL) IV
measurementLabel: AUC(0-inf) (ng·h/mL)
Hi! Could you send only the number? It should be in ng·h/mL, unit omitted.

Q: Which AUC(0-inf) value belongs to `Cc1cc(Nc2ncc(Cl)c(Nc3ccccc3S(=O)(=O)C(C)C)n2)c(OC(C)C)cc1C1=CCN(C2CCOCC2)CC1` ?
A: 2140

---

systemName: IGF1R (Homo sapiens, UniProt P08069)
Construct: purchased LeadHunter Discovery Services (currently DiscoverX Corporation), KINOMEscan screening service
protocolSummary: KINOMEscan kinase panel, IGF1R
Assay type: binding
measurementLabel: Kd (nM)
Hi! Could you send only the number? It should be in nM, unit omitted.

Q: Which Kd value belongs to `Cc1cc(Nc2ncc(Cl)c(Nc3ccccc3S(=O)(=O)C(C)C)n2)c(OC(C)C)cc1C1=CCN(C2CCOCC2)CC1` ?
A: 9

---

systemName: FES (Homo sapiens, UniProt P07332)
Construct: purchased LeadHunter Discovery Services (currently DiscoverX Corporation), KINOMEscan screening service
Sequence (P07332 whole entry): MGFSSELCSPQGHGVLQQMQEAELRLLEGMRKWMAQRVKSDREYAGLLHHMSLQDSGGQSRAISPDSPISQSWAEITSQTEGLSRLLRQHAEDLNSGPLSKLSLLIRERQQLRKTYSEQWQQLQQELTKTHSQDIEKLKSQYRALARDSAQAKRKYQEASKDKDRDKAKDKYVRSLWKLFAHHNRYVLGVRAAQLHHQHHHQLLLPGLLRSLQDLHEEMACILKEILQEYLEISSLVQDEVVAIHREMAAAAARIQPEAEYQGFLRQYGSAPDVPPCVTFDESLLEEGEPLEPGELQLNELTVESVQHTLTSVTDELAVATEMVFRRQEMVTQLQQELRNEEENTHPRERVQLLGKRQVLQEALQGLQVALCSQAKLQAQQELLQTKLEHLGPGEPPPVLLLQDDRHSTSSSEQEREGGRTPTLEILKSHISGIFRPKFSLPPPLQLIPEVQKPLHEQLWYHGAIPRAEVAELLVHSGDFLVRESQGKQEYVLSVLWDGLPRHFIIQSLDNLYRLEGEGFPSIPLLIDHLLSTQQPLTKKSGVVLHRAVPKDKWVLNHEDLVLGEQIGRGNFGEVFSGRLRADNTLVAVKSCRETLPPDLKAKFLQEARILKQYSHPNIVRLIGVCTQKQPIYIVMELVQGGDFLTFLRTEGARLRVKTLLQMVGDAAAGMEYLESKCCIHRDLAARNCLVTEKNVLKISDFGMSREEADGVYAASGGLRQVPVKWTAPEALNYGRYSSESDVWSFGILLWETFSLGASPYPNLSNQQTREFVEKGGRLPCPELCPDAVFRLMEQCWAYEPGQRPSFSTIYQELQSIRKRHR
protocolSummary: KINOMEscan kinase panel, FES
Format: binding
measurementLabel: Kd
# output: number + unit

Q: Which Kd value belongs to `Cc1cc(Nc2ncc(Cl)c(Nc3ccccc3S(=O)(=O)C(C)C)n2)c(OC(C)C)cc1C1=CCN(C2CCOCC2)CC1` ?
A: 12 nM

---

Tested on: Kappas-299 cells (NPM-ALK)
protocolSummary: Cell growth inhibition assay (WST-8), Kappas-299
Type: cell-based
measurementConditions: read-out: Kappas-299 (nM) (NPM-ALK), 50% of cell growth inhibition (IC50), WST-8, versus DMSO control
Experimental: H3122 and Kappas-299 cells were purchased from American Type Culture Collection (Manassas, Va., USA) and were used within 2 months after initiating from original stocks. All cell lines were cultured as recommended. […] Cell viability was determined using the WST-8 cell proliferation assay kit (Dojindo Molecular Technologies) according to manufacturer's instructions. […]
The threshold is 40 nM. Values of IC50 beneath it are tagged Criterion met; values meeting or exceeding it are tagged Criterion not met.

Q: State whether 40 nM exceeds IC50 recorded for Cc1cc(Nc2ncc(Cl)c(Nc3ccccc3S(=O)(=O)C(C)C)n2)c(OC(C)C)cc1C1=C[C@H](C2CC2)N[C@H](C2CC2)C1 (racemic) [compound 15] .
A: Criterion not met

Q: State whether 40 nM exceeds IC50 recorded for Cc1cc(Nc2ncc(Cl)c(Nc3ccccc3S(=O)(=O)C(C)C)n2)c(OC(C)C)cc1C1=C[C@H](C2CC2)N(C)[C@H](C2CC2)C1 (racemic) [compound 16] .
A: Criterion not met

Q: State whether 40 nM exceeds IC50 recorded for Cc1cc(Nc2ncc(Cl)c(Nc3ccccc3S(=O)(=O)C(C)C)n2)c(OC(C)C)cc1C1=CC(C)(C)N(C)C(C)(C)C1 [compound 1] .
A: Criterion met

Q: State whether 40 nM exceeds IC50 recorded for Cc1cc(Nc2ncc(Cl)c(Nc3ccccc3S(=O)(=O)C(C)C)n2)c(OC(C)C)cc1C1=C[C@H](C)N[C@H](C)C1 (racemic) [compound 9] .
A: Criterion met

Q: State whether 40 nM exceeds IC50 recorded for Cc1cc(Nc2ncc(Cl)c(Nc3ccccc3S(=O)(=O)C(C)C)n2)c(OC(C)C)cc1C1=CCN(C2CCOCC2)CC1 [Cpd. No. 5] .
A: Criterion met

Next:
Q: State whether 40 nM exceeds IC50 recorded for Cc1cc(Nc2ncc(Cl)c(Nc3ccccc3S(=O)(=O)C(C)C)n2)c(OC(C)C)cc1C1=C[C@H](C)N(C)[C@H](C)C1 (racemic) [compound 10] .
A: Criterion met
